test: Solubility in japanese pharmacopoeia first fluid at pH 1.2; assay type: physicochemical
Overview of reported solubility across a group of molecules:

CHEM SMILES | solubility
CN1CCc2nc(C(=O)N[C@@H]3C[C@@H](C(=O)N(C)C)CC[C@@H]3NC(=O)c3ccc4cc(Cl)ccc4n3)sc2C1 | > 1 mg/mL

Prompt: Query: solubility; subject: CN1CCc2nc(C(=O)N[C@@H]3C[C@@H](C(=O)N(C)C)CC[C@@H]3NC(=O)C3=Cc4ccc(Cl)cc4OC3)sc2C1
Completion: > 1 mg/mL

Prompt: Query: solubility; subject: CN1CCc2nc(C(=O)N[C@@H]3C[C@@H](C(=O)N(C)C)CC[C@@H]3NC(=O)c3cc4ccc(Cl)cc4[nH]c3=O)sc2C1
Completion: > 1 mg/mL

Prompt: Query: solubility; subject: CN1Cc2nc(C(=O)N[C@@H]3C[C@@H](C(=O)N(C)C)CC[C@@H]3NC(=O)c3cc4cc(Cl)ccc4[nH]3)sc2C1
Completion: 0.27 mg/mL

Prompt: Query: solubility; subject: CN1CCc2nc(C(=O)N[C@@H]3C[C@@H](C(=O)N(C)C)CC[C@@H]3NC(=O)c3ccc4cc(Cl)ccc4c3)sc2C1
Completion: 0.99 mg/mL

Prompt: Query: solubility; subject: CN1CCc2nc(C(=O)N[C@@H]3C[C@@H](C(=O)N(C)C)CC[C@@H]3NC(=O)c3cc(=O)c4cc(Cl)ccc4[nH]3)sc2C1
Completion: > 1 mg/mL

Prompt: Query: solubility; subject: CN1CCc2nc(C(=O)N[C@@H]3C[C@@H](C(=O)N(C)C)CC[C@@H]3NC(=O)c3cc4ccc(Cl)cc4nn3)sc2C1
Completion: > 1 mg/mL

Prompt: Query: solubility; subject: CN1CCc2nc(C(=O)N[C@@H]3C[C@@H](C(=O)N(C)C)CC[C@@H]3NC(=O)c3cc4ccc(Cl)cc4cn3)sc2C1
Completion: > 1 mg/mL

Prompt: Query: solubility; subject: CN1Cc2nc(C(=O)N[C@@H]3C[C@@H](C(=O)N(C)C)CC[C@@H]3NC(=O)c3ccc4cc(Cl)ccc4c3)sc2C1
Completion: > 1 mg/mL

Prompt: Query: solubility; subject: CN1CCc2nc(C(=O)N[C@@H]3C[C@@H](C(=O)N(C)C)CC[C@@H]3NC(=O)c3nc(=O)c4cc(Cl)ccc4[nH]3)sc2C1
Completion: 0.97 mg/mL
